Would you mind telling me the reported inhibition of each entry?
testedTarget: Serine/threonine-protein kinase TBK1 (Homo sapiens) (UniProt Q9UHD2);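 further: values are mean inhibition of TBK1, screened as part of the GSK published kinase inhibitor set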
Sequence (Q9UHD2 whole entry): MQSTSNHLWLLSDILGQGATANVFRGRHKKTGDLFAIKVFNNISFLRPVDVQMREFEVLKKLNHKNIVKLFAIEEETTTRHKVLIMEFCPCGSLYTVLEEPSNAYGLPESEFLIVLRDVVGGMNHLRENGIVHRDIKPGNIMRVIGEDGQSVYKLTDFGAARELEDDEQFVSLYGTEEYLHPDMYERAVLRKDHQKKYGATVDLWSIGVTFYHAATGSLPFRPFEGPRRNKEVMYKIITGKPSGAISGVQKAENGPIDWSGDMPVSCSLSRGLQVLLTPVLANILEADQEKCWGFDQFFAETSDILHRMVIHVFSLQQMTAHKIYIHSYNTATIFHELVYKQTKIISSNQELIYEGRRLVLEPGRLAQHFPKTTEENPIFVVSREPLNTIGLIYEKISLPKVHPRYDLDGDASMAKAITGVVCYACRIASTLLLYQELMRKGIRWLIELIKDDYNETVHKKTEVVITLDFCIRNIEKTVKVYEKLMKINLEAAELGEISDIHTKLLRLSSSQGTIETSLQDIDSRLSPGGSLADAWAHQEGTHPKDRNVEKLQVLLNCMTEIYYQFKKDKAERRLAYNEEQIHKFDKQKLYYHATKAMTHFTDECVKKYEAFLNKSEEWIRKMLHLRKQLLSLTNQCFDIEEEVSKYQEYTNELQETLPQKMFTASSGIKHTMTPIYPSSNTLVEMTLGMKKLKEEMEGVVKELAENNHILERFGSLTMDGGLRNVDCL
measurementConditions: at 1 µM
One number for each entry, in %.

> print(dat)
                                   compound  valueunits  valuereported
1  COc1ccc2ncn(-c3cc(O[C@H](C)c4ccccc4C(F)(F)F)c(C(N)=O)s3)c2c1           %          -0.87
2  Fc1ccc(Nc2nccc(-c3c(-c4ccc(C(F)(F)F)cc4)nn4ncccc34)n2)cc1F           %           5.12

Field: inhibition. Fill in for each record below.
1. c1cnn2ncc(-c3ccnc(NCCCN4CCOCC4)n3)c2c1
2. Cc1cc(O)cc(C)c1/C=C/c1cncc(C(N)=O)c1
3. CS(=O)(=O)Nc1ccc(-c2cc(-c3ccccc3)cc(C(N)=O)c2N)cc1
4. CC1=C(C(=O)Nc2ccc3[nH]nc(C)c3c2)C(c2ccc(C(F)(F)F)cc2)CC(=O)N1 (stereo not given)
5. NS(=O)(=O)c1ccc(N/N=C2\C(=O)Nc3ccc(C(=O)NCc4ccncc4)cc32)cc1

[1.95, 1.71, 2.08, 3.52, 44]

// each listed compound needs a value for inhibition
1. O=C(Nc1n[nH]c2nnc(-c3cccnc3)cc12)C1CC1
2. Cn1c(-c2nonc2N)nc2cnccc21
3. COc1cccc(Nc2nccc(-c3cnn4ncccc34)n2)c1

1. 1.3
2. 7.42
3. 22.9
